Reference source: ChEMBL document CHEMBL5385862

- ASSAY_DETAILS: Selectivity index ratio of CC50 for cytotoxicity against human MRC5 cells to IC50 for antibacterial activity against Acinetobacter baumannii assessed as inhibition of bacterial growth
- Type: toxicity, cell-based
- ASSAY_CONTEXT: read-out: Ratio CC50/IC50
With a cut-off of 4, any selectivity ratio strictly below it is called Y; any selectivity ratio meeting it or above is called N.

| COMPOUND | DISCRETE_LABEL |
| --- | --- |
| CN(O)C(=O)CCCP(=O)(OCOC(=O)c1ccccc1)OCOC(=O)c1ccccc1 | Y |
| CCON(C)C(=O)CCCP(=O)(OCOC(=O)c1coc(-c2ccccc2O)n1)OCOC(=O)c1coc(-c2ccccc2O)n1 | Y |
| CCON(C)C(=O)CCCP(=O)(OCOC(=O)OCc1coc(-c2ccccc2O)n1)OCOC(=O)OCc1coc(-c2ccccc2O)n1 | Y |

Task: Item `CN(O)C(=O)CCCP(=O)(OCOC(=O)c1ccc2ccccc2c1)OCOC(=O)c1ccc2ccccc2c1` : selectivity ratio beneath 4, strictly?
Result: Y

Task: Item CCCCCCCC(=O)OCOP(=O)(OCOC(=O)CCCCCCC)C(CCC(=O)N(C)O)c1ccc(Cl)c(Cl)c1 (configuration not stated) : selectivity ratio beneath 4, strictly?
Result: Y

Task: Item `CCCCCCCCOC(=O)OCOP(=O)(CCCC(=O)N(C)O)OCOC(=O)OCCCCCCCC` : selectivity ratio beneath 4, strictly?
Result: N

---

- ASSAY_DETAILS: Selectivity index ratio of CC50 for cytotoxicity against human MRC5 cells to IC50 for antiplasmodial activity against asexual blood stage Plasmodium falciparum K1 assessed as inhibition of parasitic growth
- Type: toxicity, cell-based
- ASSAY_CONTEXT: read-out: Ratio CC50/IC50
Catalogue of molecules with associated selectivity ratio
// return just the number, without any unit appended

Task: // query selectivity ratio value for entry `CN(O)C(=O)CCCP(=O)(OCOC(=O)c1ccc(Cl)cc1)OCOC(=O)c1ccc(Cl)cc1`
Result: 223

Task: // query selectivity ratio value for entry `CN(O)C(=O)CCCP(=O)(OCOC(=O)c1ccccc1)OCOC(=O)c1ccccc1`
Result: 234

Task: // query selectivity ratio value for entry `CN(O)C(=O)CCCP(=O)(OCOC(=O)/C=C/c1ccccc1)OCOC(=O)/C=C/c1ccccc1`
Result: 606

Task: // query selectivity ratio value for entry CN(O)C(=O)CCC(c1ccc(Cl)c(Cl)c1)P(=O)(OCOC(=O)/C=C/c1ccccc1)OCOC(=O)/C=C/c1ccccc1 (stereo not drawn)
Result: 5.6

Task: // query selectivity ratio value for entry CCCCCCCC(=O)OCOP(=O)(OCOC(=O)CCCCCCC)C(CCC(=O)N(C)O)c1ccc(Cl)c(Cl)c1 (stereo not drawn)
Result: 51

Task: // query selectivity ratio value for entry `CCON(C)C(=O)CCCP(=O)(OCOC(=O)OCc1coc(-c2ccccc2O)n1)OCOC(=O)OCc1coc(-c2ccccc2O)n1`
Result: 61

Task: // query selectivity ratio value for entry `CCON(C)C(=O)CCCP(=O)(OCOC(=O)c1coc(-c2ccccc2O)n1)OCOC(=O)c1coc(-c2ccccc2O)n1`
Result: 48

Task: // query selectivity ratio value for entry `CCCCCCCC(=O)OCOP(=O)(CCCC(=O)N(C)O)OCOC(=O)CCCCCCC`
Result: 1340

---

- ASSAY_DETAILS: Cytotoxicity against human MRC5 cells assessed as reduction in cell viability
- Format: toxicity, cell-based
RESULT_TYPE: CC50

| COMPOUND | CC50 |
| --- | --- |
| CN(O)C(=O)CCCP(=O)(OCOC(=O)c1cccc(Cl)c1)OCOC(=O)c1cccc(Cl)c1 | > 64 µM |
| CN(O)C(=O)CCC(c1ccc(Cl)c(Cl)c1)P(=O)(OCOC(=O)C(C)(C)C)OCOC(=O)C(C)(C)C (centres undefined) | 6.81 µM |
| CCON(C)C(=O)CCCP(=O)(OCOC(=O)c1ccccc1O)OCOC(=O)c1ccccc1O | > 64 µM |
| CN(O)C(=O)CCCP(=O)(OCOC(=O)c1ccc(Cl)cc1)OCOC(=O)c1ccc(Cl)cc1 | 31.2 µM |
| CC(C)OC(=O)OCOP(=O)(CCCC(=O)N(C)O)OCOC(=O)OC(C)C | > 50.7 µM |

Task: // query CC50 value for entry `CN(O)C(=O)CCCP(=O)(OCOC(=O)c1ccc2ccccc2c1)OCOC(=O)c1ccc2ccccc2c1`
Result: 27.2 µM

Task: // query CC50 value for entry `CN(O)C(=O)CCCP(=O)(OCOC(=O)c1ccccc1)OCOC(=O)c1ccccc1`
Result: 28.1 µM

Task: // query CC50 value for entry CCCCCCCC(=O)OCOP(=O)(OCOC(=O)CCCCCCC)C(CCC(=O)N(C)O)c1ccc(Cl)c(Cl)c1 (centres undefined)
Result: 22.5 µM

Task: // query CC50 value for entry `COc1ccc(C(=O)OCOP(=O)(CCCC(=O)N(C)O)OCOC(=O)c2ccc(OC)cc2)cc1`
Result: 33.1 µM

---

Catalogue of compounds with associated selectivity ratio
- ASSAY_DETAILS: Selectivity index ratio of CC50 for cytotoxicity against human MRC5 cells to IC50 for antibacterial activity against Acinetobacter baumannii assessed as inhibition of bacterial growth
- Type: toxicity, cell-based
- ASSAY_CONTEXT: read-out: Ratio CC50/IC50
// return just the number, without any unit appended

Some compounds with known selectivity ratio results, for comparison:
| COMPOUND_STRUCTURE_STRING | OBSERVED |
| --- | --- |
| CCCCCCCC(=O)OCOP(=O)(CCCC(=O)N(C)O)OCOC(=O)CCCCCCC | 103 |
| CN(O)C(=O)CCCP(=O)(OCOC(=O)/C=C/c1ccccc1)OCOC(=O)/C=C/c1ccccc1 | 5.4 |
| CN(O)C(=O)CCCP(=O)(OCOC(=O)c1ccc(Cl)cc1)OCOC(=O)c1ccc(Cl)cc1 | 0.8 |

Moving on to another compound below.
Task: // query selectivity ratio value for entry `COc1ccc(C(=O)OCOP(=O)(CCCC(=O)N(C)O)OCOC(=O)c2ccc(OC)cc2)cc1`
Result: 3.3

---

Catalogue of compounds with associated IC50
- Test system: Mycobacterium tuberculosis
- ASSAY_DETAILS: Antitubercular activity against Mycobacterium tuberculosis H37Ra assessed as inhibition of bacterial growth
- Assay type: functional, organism-based

Some compounds with known IC50 results, for comparison:
| COMPOUND | ASSAYED_TARGET | IC50 |
| --- | --- | --- |
| CN(O)C(=O)CCCP(=O)(OCOC(=O)c1ccc2ccccc2c1)OCOC(=O)c1ccc2ccccc2c1 | Mycobacterium tuberculosis | > 64 µM |
| O=CN(O)CCCP(=O)(O)O [FOSMIDOMYCIN SODIUM] | Mycobacterium tuberculosis | > 64 µM |
| CN(O)C(=O)CCC(c1ccc(Cl)c(Cl)c1)P(=O)(OCOC(=O)/C=C/c1ccccc1)OCOC(=O)/C=C/c1ccccc1 (stereo not drawn) | Mycobacterium tuberculosis | > 64 µM |
| Cc1ccc(C(=O)OCOP(=O)(CCCC(=O)N(C)O)OCOC(=O)c2ccc(C)cc2)cc1 | Mycobacterium tuberculosis | > 64 µM |
| CC(C)OC(=O)OCOP(=O)(OCOC(=O)OC(C)C)C(CCC(=O)N(C)O)c1ccc(Cl)c(Cl)c1 (stereo not drawn) | Mycobacterium tuberculosis | > 64 µM |
| CCON(C)C(=O)CCCP(=O)(OCOC(=O)c1ccccc1O)OCOC(=O)c1ccccc1O | Mycobacterium tuberculosis | > 64 µM |

Task: // query IC50 value for entry `CN(O)C(=O)CCCP(=O)(OCOC(=O)c1ccc(Cl)cc1)OCOC(=O)c1ccc(Cl)cc1`
Result: > 64 µM

Task: // query IC50 value for entry CCCCCCCC(=O)OCOP(=O)(OCOC(=O)CCCCCCC)C(CCC(=O)N(C)O)c1ccc(Cl)c(Cl)c1 (stereo not drawn)
Result: > 64 µM

Task: // query IC50 value for entry CN(O)C(=O)CCC(c1ccc(Cl)c(Cl)c1)P(=O)(OCOC(=O)C(C)(C)C)OCOC(=O)C(C)(C)C (stereo not drawn)
Result: > 64 µM

Task: // query IC50 value for entry `CCON(C)C(=O)CCCP(=O)(OCOC(=O)c1coc(-c2ccccc2O)n1)OCOC(=O)c1coc(-c2ccccc2O)n1`
Result: > 64 µM

Task: // query IC50 value for entry `CN(O)C(=O)CCCP(=O)(OCOC(=O)OCCCc1ccccc1)OCOC(=O)OCCCc1ccccc1`
Result: > 64 µM

Task: // query IC50 value for entry `CN(O)C(=O)CCCP(=O)(OCOC(=O)CCCCc1ccccc1)OCOC(=O)CCCCc1ccccc1`
Result: > 64 µM

---

- ASSAY_DETAILS: Selectivity index ratio of CC50 for cytotoxicity against human MRC5 cells to IC50 for antiplasmodial activity against asexual blood stage Plasmodium falciparum K1 assessed as inhibition of parasitic growth
- Type: toxicity, cell-based
- ASSAY_CONTEXT: read-out: Ratio CC50/IC50
RESULT_TYPE: selectivity ratio
// return just the number, without any unit appended

Some molecules with known selectivity ratio results, for comparison:
| MOLECULE | selectivity ratio |
| --- | --- |
| CC(C)OC(=O)OCOP(=O)(OCOC(=O)OC(C)C)C(CCC(=O)N(C)O)c1ccc(Cl)c(Cl)c1 (centres undefined) | 33 |
| CN(O)C(=O)CCC(c1ccc(Cl)c(Cl)c1)P(=O)(OCOC(=O)C(C)(C)C)OCOC(=O)C(C)(C)C (centres undefined) | 15 |
| CN(O)C(=O)CCCP(=O)(OCOC(=O)c1ccc2ccccc2c1)OCOC(=O)c1ccc2ccccc2c1 | 109 |

Task: // query selectivity ratio value for entry `COc1ccc(C(=O)OCOP(=O)(CCCC(=O)N(C)O)OCOC(=O)c2ccc(OC)cc2)cc1`
Result: 184

Task: // query selectivity ratio value for entry `CCCCCCCCOC(=O)OCOP(=O)(CCCC(=O)N(C)O)OCOC(=O)OCCCCCCCC`
Result: 539
